target: Sodium channel protein type 2 subunit alpha (Homo sapiens); experiment: Inhibition of human Nav1.2 expressed in HEK293 cells assessed as test to control ratio at 1 uM measured after 5 mins by whole cell voltage clamp electrophysiological analysis; assay type: cell-based
Sequence (Q99250 whole entry, looked up): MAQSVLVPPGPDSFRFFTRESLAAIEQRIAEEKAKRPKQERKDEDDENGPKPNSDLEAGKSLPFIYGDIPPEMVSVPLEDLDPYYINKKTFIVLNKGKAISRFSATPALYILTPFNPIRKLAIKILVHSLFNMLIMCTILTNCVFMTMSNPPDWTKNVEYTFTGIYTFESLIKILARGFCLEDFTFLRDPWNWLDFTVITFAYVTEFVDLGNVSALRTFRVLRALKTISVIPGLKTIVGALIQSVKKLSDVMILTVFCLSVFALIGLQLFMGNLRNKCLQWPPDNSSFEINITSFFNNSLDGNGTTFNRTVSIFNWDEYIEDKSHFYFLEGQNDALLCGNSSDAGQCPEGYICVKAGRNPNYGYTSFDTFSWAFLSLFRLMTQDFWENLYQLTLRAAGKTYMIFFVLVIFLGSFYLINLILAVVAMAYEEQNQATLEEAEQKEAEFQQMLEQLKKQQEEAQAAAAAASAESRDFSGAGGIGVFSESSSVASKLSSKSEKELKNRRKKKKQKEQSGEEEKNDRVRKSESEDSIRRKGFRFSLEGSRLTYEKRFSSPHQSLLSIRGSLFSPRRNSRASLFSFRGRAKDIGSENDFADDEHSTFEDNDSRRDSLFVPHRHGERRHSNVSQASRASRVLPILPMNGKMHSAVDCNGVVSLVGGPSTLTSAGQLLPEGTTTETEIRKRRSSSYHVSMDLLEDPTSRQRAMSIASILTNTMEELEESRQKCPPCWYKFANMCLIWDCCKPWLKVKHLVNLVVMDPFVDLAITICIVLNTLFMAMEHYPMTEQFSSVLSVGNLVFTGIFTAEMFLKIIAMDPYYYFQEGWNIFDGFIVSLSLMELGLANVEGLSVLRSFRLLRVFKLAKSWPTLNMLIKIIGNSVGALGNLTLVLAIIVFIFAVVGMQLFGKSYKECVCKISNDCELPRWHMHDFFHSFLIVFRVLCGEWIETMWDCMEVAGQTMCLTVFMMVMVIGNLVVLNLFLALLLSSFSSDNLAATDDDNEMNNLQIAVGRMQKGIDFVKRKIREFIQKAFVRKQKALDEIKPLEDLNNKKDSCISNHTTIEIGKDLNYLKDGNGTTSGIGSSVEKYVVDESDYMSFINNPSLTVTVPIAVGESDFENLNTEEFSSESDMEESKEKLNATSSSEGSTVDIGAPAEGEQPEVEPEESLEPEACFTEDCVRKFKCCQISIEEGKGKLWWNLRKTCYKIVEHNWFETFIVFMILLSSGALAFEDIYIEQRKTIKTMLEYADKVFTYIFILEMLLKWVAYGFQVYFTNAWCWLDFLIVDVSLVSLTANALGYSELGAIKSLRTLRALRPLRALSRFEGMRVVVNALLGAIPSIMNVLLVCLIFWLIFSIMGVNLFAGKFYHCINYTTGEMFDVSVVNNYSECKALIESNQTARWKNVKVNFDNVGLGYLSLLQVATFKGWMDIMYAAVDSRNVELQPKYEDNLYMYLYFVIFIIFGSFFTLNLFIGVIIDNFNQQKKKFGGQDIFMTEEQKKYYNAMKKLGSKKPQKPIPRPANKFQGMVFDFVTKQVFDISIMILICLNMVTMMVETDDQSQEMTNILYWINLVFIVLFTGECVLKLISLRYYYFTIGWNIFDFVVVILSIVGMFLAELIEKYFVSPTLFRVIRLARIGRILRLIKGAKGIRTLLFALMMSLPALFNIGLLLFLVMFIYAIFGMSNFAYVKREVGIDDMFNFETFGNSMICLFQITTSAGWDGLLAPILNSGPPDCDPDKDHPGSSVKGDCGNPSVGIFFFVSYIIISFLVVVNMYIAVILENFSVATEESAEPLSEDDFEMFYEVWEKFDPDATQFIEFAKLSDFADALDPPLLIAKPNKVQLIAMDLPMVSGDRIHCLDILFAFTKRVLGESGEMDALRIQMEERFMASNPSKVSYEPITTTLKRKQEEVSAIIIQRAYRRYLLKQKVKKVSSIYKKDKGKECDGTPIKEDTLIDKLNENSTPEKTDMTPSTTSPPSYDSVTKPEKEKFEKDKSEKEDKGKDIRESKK
QUANTITY MEASURED: T/C

Previously resolved entries follow.
COc1cccc(-c2cc(N3CCc4cc(OC)c(OC)cc4C3)nc(N)n2)c1 0.35
Nc1nc(-c2ccc3c(c2)OCCC3)cc(N2CCCc3ccccc3C2)n1 0.72
Nc1nc(-c2ccc(F)cc2)cc(N2CCCc3ccccc3C2)n1 0.46
CC(C)Oc1ccc(-c2cc(N3CCCc4ccccc4C3)nc(N)n2)cc1 0.87

# input for lookup
[in] Please give measured T/C of the following entry: "Nc1nc(-c2ccc3c(c2)CCO3)cc(N2CCCc3ccccc3C2)n1"
[out] 0.82
